Test system: HOP-92 NSCLC
Experiment: NCI-60 one-dose screen, 48 h (100 = growth as untreated, 0 = no growth, -100 = all killed)
Details: 10 µM unless noted
Compounds without any hit were thinned out: in the full panel of roughly 83,000, 20% have a hit. The source made the active and inactive calls. How the source made its calls: active means growth percent below 10; inactive means the rest.
endpoint-label: growth

In the examples that follow, each entry is paired with its recorded growth.
- compound: "CN1C(=O)C(C2=NN(C=O)C(c3ccc(F)cc3)C2)C(=O)N(C)C1=O (stereo not given)"
  growth: "91.7% (inactive)"
- compound: "COc1cc(/C(Cl)=C/C=C/C(=O)c2c(C)[n+]([O-])c3ccc(Cl)cc3[n+]2[O-])cc(OC)c1OC"
  growth: "68.8% (inactive)"

Fill blank: measured growth of the compound CSc1nc(-c2ccc(O)cc2O)c2c(=O)[nH]c(Nc3ccc(S(=O)(=O)Nc4nc(C)cc(C)n4)cc3)nc2n1 is ____.
24.6% (inactive)

Any idea what its growth is? The compound is O=C1C(=O)c2c(nc3ccc(Cl)cn23)-c2ccccc21
-79.8% (active)

----------
System: A549/ATCC NSCLC
Assay: NCI-60 one-dose screen, 48 h
Settings: 10 µM unless noted
The panel holds about 83,000 compounds, 20% with a hit somewhere; the sample as a whole holds those more often. Calls of active or inactive are those of the source. The calls were made as follows: active = growth percent below 10; inactive = the rest.
Please reply with one of these outcomes: T for active, F for inactive

- compound: "COc1cc(/C=C/c2cc(/C=C/c3ccc(O)c(OC)c3)n(C(=O)Cc3ccccc3)n2)ccc1O"
  assigned-category: "T"
- compound: "COc1ccc2c(c1)c(CC(=O)[Se]C)c(C)n2C(=O)c1ccc(Cl)cc1"
  assigned-category: "T"
- compound: "CC(NNC(=S)N1CCCCCC1)c1ccc2ccccc2n1 (centres undefined)"
  assigned-category: "F"
- compound: "Oc1c(N=Nc2nn[nH]n2)ccc2ccccc12"
  assigned-category: "F"

Called result for COc1cnc2c(c1)C(=O)c1c-2n(CCCn2ccnc2)c(=O)c2cc(F)ccc12
T

Record request — test call for COc1ccc2nc(-c3ccc(Cl)cc3)cc(-c3nnc(SCC(=O)Nc4ccc(C(C)=O)cc4)n3-c3ccccc3)c2c1
F

Lab log entry: COc1ccc(-c2nnc3c4[nH]cnc4ncn23)c(OC)c1 — outcome as called in the assay?
F

Please let me know the test result on file for CSc1nc(-c2ccc(O)cc2O)c2c(=O)[nH]c(Nc3ccc(S(=O)(=O)Nc4nc(C)cc(C)n4)cc3)nc2n1 .
F

So what was the verdict on COc1ccc2c(c1)[n+](=O)c(C(=O)/C=C/c1cc(OC)c(OC)c(OC)c1)c(C)n2[O-] in this test?
F

----------
System: MDA-MB-435 melanoma
Assay: NCI-60 one-dose screen, 48 h (100 = growth as untreated, 0 = no growth, -100 = all killed)
Conditions: 10 µM unless noted
Compounds without any hit were thinned out: in the full panel of roughly 83,000, 20% have a hit.
endpoint-label: growth (%)
Write the number in % without appending the unit.

Answered examples (4):
- compound: "CN(C)CCCN=c1cc2c(=O)n(CCCN(C)C)c(=O)c3c(NCCCN(C)C)cc4c(O)n(CCCN(C)C)c(=O)c1c4c3-2"
  tgt: "MDA-MB-435 melanoma"
  readout-units: "%"
  reported-measurement: -52.8
- compound: "Cc1sc2nc3c4ccccc4c(NCCCN(C)C)nn3c(=O)c2c1C"
  tgt: "MDA-MB-435 melanoma"
  readout-units: "%"
  reported-measurement: 24.8
- compound: "Nc1ccccc1C#Cc1ccccc1C#Cc1ccc(OCCCCCCOc2ccc(C#Cc3ccccc3C#Cc3ccccc3N)cc2)cc1"
  tgt: "MDA-MB-435 melanoma"
  readout-units: "%"
  reported-measurement: 97.5
- compound: "C[C@H]1O[C@@H](O[C@H]2[C@@H](O)C[C@H](O[C@H]3[C@@H](O)C[C@H](O[C@H]4CC[C@]5(C)C6CC[C@]7(C)[C@@H](C8=CC(=O)OC8)CC[C@]7(O)C6CC[C@@H]5C4)O[C@@H]3C)O[C@@H]2C)C[C@H](O)[C@@H]1O (stereo partly specified)"
  tgt: "MDA-MB-435 melanoma"
  readout-units: "%"
  reported-measurement: -100

Can you look up the measured growth of Cn1c(=O)c2[nH]c(=S)n(Cc3ccccc3)c2n(C)c1=O for me?
119

I have this compound here, CCOC(=O)CCC(=O)O[C@H]1[C@H](O[C@@H]2[C@@H](C)[C@H](O[C@H]3C[C@@](C)(OC)[C@@H](O)[C@H](C)O3)[C@@H](C)C(=O)O[C@H](CC)[C@@](C)(O)[C@H](O)[C@@H](C)C(=O)[C@H](C)C[C@@]2(C)O)O[C@H](C)C[C@@H]1N(C)C , and I need its recorded growth.
105
